system: AncSZ; experiment: phosphorylation enrichment, bacterial display (enrichment ratio); higher = better substrate or ligand; peptides without Tyr show the background;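 note: 11-residue human phosphosite peptides and single-mutation variants displayed on the E. coli surface, counted by deep sequencing, each peptide's frequency after selection divided by its frequency in the unselected input library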;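 note: frequency after pTyr selection over input frequency; kinase dosed for 20-30% of maximal phosphorylation in three min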
assay.metric: phosphorylation enrichment

[[record]]
sequence_code = "MILSAYALGGL [CPS1_Y590_R587L]"
result = 0.894

[[record]]
sequence_code = "AKLVQYFMEHH [PTPN11_Y80_E76K_YF]"
result = 0.729

[[record]]
sequence_code = "NTFEKYWPFFQ [GATM_Y103_YF]"
result = 0.987

[[record]]
sequence_code = "PIPAAYNKYDQ [CDC73_Y290_R292K]"
result = 0.707

[[record]]
sequence_code = "RRNEEYCLLDS [ITK_Y198]"
result = 2.25

[[record]]
sequence_code = "TYGQVYKGPHV [TNIK_Y40_R43P]"
result = 0.68

[[record]]
sequence_code = "VPLLEYFRDIF [CDAN1_Y712_YF]"
result = 1.42

[[record]]
sequence_code = "HRGFLYLAIEF [TEK_Y899_Y897F_YF]"
result = 1.49

[[record]]
sequence_code = "RRYVYYYSYLL [PTEN_Y177]"
result = 0.814

[[record]]
sequence_code = "IMAYFYMCDSA [CASD1_Y382_R386S]"
result = 1.38

[[record]]
sequence_code = "SSSGAYGGGFG [KRT19_Y61_YF]"
result = 0.553

[[record]]
sequence_code = "EFKDAYTFAAD [BRDT_Y335_K336T_YF]"
result = 1.09

[[record]]
sequence_code = "HNLDYYKETTN [FGFR3_Y648_K650E]"
result = 1.25

[[record]]
sequence_code = "LSGVIYVILRK [PMP22_Y153]"
result = 1.01

[[record]]
sequence_code = "ILIFHYAKGQP [MPZ_Y82_S78L]"
result = 1.32

[[record]]
sequence_code = "NRVEIYEKTVE [CYFIP1_Y108]"
result = 1.07

[[record]]
sequence_code = "PPSLSYLSFEG [EXOSC3_Y143_A139P]"
result = 0.756

[[record]]
sequence_code = "DPLLTHRFPPK [LMNA_Y481_Y481H]"
result = 0.434

[[record]]
sequence_code = "KASGKYFAMKI [AKT3_Y173_YF]"
result = 0.495

[[record]]
sequence_code = "KPRKPYTIKKP [BRD2_Y715]"
result = 1.28

[[record]]
sequence_code = "FFTEEYVRAHP [DOCK2_Y1555_D1558A]"
result = 1.54

[[record]]
sequence_code = "HHIDYYKETTN [FGFR1_Y654_K656E]"
result = 1.13

[[record]]
sequence_code = "RLDGEYFTLQI [TP53_Y327_P322R]"
result = 1.89

[[record]]
sequence_code = "QEGPEYWDEET [HLA-A_Y83_Q86E]"
result = 2.5

[[record]]
sequence_code = "VDTFWYKLLKR [EPM2A_Y86_F88L]"
result = 0.971

[[record]]
sequence_code = "PEVSGYCHCAD [TG_Y234]"
result = 2.1

[[record]]
sequence_code = "RLRVVYPWTQR [HBB_Y36_L33R]"
result = 0.688

[[record]]
sequence_code = "LTTEVYFPSIK [C5orf64_Y60_A57T]"
result = 0.946

[[record]]
sequence_code = "TVVVPYEPPEV [TP53_Y220_S215T]"
result = 1.08

[[record]]
sequence_code = "FKEQGYHRLPS [RIN1_Y681_P686S_YF]"
result = 1.23

[[record]]
sequence_code = "SGVVPYEPPEV [TP53_Y220_V216G]"
result = 1.12

[[record]]
sequence_code = "GKGGSYSQAAS [HLA-B_Y344_C349S]"
result = 0.548

[[record]]
sequence_code = "DAVAVYDGKIS [SH2D1A_Y7_H8D]"
result = 0.721

[[record]]
sequence_code = "LAGRYYALKSM [CKB_Y174]"
result = 1.24

[[record]]
sequence_code = "RNDQVYQPLRD [CD3D_Y149]"
result = 0.875

[[record]]
sequence_code = "TMKSRYMELYD [BBS2_Y644]"
result = 0.812

[[record]]
sequence_code = "TLQSMYGCDLG [HLA-B_Y123_V127L]"
result = 1.18

